A collection of binders and their measured MAX(MFI)
- System under test: T1, human ROR1 (hROR1) on cells (human, UniProt Q01973 30-937)
- T1 construct: whole, on cells; the cell line is named under assay; also called HEK293T-hROR1; 293T-hROR1
- T1 sequence (Q01973 30-937): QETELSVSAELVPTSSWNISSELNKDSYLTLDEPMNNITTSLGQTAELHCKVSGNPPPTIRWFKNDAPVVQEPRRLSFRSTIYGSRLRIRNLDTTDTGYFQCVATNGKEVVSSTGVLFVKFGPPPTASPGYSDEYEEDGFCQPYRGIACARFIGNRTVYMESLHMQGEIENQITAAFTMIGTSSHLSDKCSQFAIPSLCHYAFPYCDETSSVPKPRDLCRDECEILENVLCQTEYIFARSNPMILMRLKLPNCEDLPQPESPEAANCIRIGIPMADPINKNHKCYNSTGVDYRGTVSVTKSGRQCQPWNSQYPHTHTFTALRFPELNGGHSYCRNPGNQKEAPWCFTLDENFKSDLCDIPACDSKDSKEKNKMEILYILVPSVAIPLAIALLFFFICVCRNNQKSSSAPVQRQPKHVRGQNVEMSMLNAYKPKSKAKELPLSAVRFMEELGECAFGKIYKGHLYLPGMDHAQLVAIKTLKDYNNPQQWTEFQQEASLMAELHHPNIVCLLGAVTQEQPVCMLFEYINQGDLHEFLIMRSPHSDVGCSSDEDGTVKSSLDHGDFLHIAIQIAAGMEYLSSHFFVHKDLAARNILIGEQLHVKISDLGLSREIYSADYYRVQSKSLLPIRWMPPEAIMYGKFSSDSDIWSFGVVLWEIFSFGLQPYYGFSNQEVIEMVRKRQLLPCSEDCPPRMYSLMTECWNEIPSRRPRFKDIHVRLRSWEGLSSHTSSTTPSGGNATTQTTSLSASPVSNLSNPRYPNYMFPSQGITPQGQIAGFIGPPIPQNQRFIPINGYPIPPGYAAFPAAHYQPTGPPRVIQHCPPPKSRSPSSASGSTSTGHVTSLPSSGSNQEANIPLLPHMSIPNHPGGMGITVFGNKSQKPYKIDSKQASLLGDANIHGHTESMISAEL
- Test protocol: FACS, HEK293T-hROR1 cells; cytometer saturated
Remember to put the unit after the number in your answer.

PR001369 (antibody, human IgG1, kappa, V domains shown, fully human IgG1, kappa; also called anti-ROR1 1015M3-H10 hIgG1; PR001369(WT)) VH: QVQLVESGGGVVQPGRSLRLSCAASGFTFSNYGIHWVRQAPGKGLEWVAIMWYDGSNTDYADSVKGRFTISRDTSKNTLFLQMNSLRAEDTAVYYCAREQARSFDLWGRGTLVTVSS VL: DIVMTQSPSTLSASVGDRVTITCRASQTINNWLAWYQQKPGKAPKLLIYKASSLESGVPSRFSGSGSGTEFTLTISSLQPDDFATYYCQQYNSYSPMYTFGQGTKVEIKR = 262000 MFI

Okay, now this binder:
Which value of MAX(MFI) has been reported for PR001362 (antibody, V domains shown, fully human IgG1, kappa) VH: QVQLVESGGGLVQPGGSLRLSCAASGFTFSTYGMHWVRQAPGKGLEWVAVIWYDGSDEDYADSVKGRFTISRDNSKNTLYLQMNSLRAEDTAVYYCARDQARSFDLWGRGTLVTVSS VL: DIVMTQSPSTLSASVGDRVTITCRASQSINSWLAWYQQKPGKAPKLLIYKASSLESGVPSRFSGSGSGTEFTLTISSLQPDDFATYYCQQYKSYSPMYTFGQGTKVEIKR in the records?
262000 MFI
